Biological target: LCK (Homo sapiens)
Sequence (P06239 whole entry, species assumed): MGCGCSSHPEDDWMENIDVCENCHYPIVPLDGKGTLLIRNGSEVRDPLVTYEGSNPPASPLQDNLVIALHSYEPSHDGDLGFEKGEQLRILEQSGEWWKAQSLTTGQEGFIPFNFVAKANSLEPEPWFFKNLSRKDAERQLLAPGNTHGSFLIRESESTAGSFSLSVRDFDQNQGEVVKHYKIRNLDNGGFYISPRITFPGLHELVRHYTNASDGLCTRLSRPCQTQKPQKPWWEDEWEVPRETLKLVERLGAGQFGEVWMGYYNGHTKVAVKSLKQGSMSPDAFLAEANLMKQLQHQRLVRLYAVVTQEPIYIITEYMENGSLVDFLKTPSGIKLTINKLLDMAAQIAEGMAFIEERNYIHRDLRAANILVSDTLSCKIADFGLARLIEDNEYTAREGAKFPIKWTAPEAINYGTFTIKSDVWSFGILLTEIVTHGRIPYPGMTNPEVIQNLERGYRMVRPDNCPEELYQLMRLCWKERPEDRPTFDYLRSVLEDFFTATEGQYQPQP
Assay: Kinase panel (mobility shift)
Assay type: biochemical
Assay Endpoint: inhibition at 5 µM

Dear colleague, I am looking for the recorded inhibition at 5 µM of the following compound: CSc1nc(C(=O)Nc2ccc(Oc3cc4cnn(C)c4cc3Br)c(F)c2)c(-c2ccc(F)cc2)o1 [Compound 2]
< 50%

Dear colleague, I am looking for the recorded inhibition at 5 µM of the following compound: CNC(=O)c1cc(Oc2ccc(NC(=O)c3nc(SC)oc3-c3ccc(Cl)s3)cc2)ccn1 [Compound 5]
50 to 79%

Dear colleague, I am looking for the recorded inhibition at 5 µM of the following compound: CNC(=O)c1cc(Oc2ccc(NC(=O)c3nc(NC)sc3-c3ccc(F)cc3F)cc2F)ccn1 [Compound 21]
< 50%

Dear colleague, I am looking for the recorded inhibition at 5 µM of the following compound: CNC(=O)c1cc(Oc2ccc(NC(=O)c3nc(SC)oc3-c3ccc(F)cc3F)cc2F)ccn1 [Compound 12]
≥ 95%

Dear colleague, I am looking for the recorded inhibition at 5 µM of the following compound: CNC(=O)c1cc(Oc2ccc(NC(=O)c3nc(OC)oc3-c3ccc(F)s3)cc2F)ccn1 [Compound 25]
< 50%

Dear colleague, I am looking for the recorded inhibition at 5 µM of the following compound: CNC(=O)c1cc(Oc2ccc(NC(=O)c3nc(SC)oc3-c3ccc(F)c(F)c3)cc2)ccn1 [Compound 4]
80 to 89%

Dear colleague, I am looking for the recorded inhibition at 5 µM of the following compound: CNC(=O)c1cc(Oc2ccc(NC(=O)c3nc(SC)oc3-c3ccc(F)cc3Cl)cc2)ccn1 [Compound 3]
≥ 95%

Dear colleague, I am looking for the recorded inhibition at 5 µM of the following compound: COc1nc(C(=O)Nc2ccc(Oc3ccnc(C(=O)NC4COC4)c3)c(F)c2)c(-c2ccc(F)cc2)o1 [Compound 39]
< 50%

Dear colleague, I am looking for the recorded inhibition at 5 µM of the following compound: CNC(=O)c1cc(Oc2ccc(NC(=O)c3nc(NC)oc3-c3ccc(F)s3)cc2F)ccn1 [Compound 17]
< 50%

Dear colleague, I am looking for the recorded inhibition at 5 µM of the following compound: [2H]C([2H])([2H])NC(=O)c1cc(Oc2ccc(NC(=O)c3nc(SC)oc3-c3ccc(F)s3)cc2F)ccn1 [Compound 35]
< 50%

Dear colleague, I am looking for the recorded inhibition at 5 µM of the following compound: CNC(=O)c1cc(Oc2ccc(NC(=O)c3nc(SC)oc3-c3ccc(OC)cc3)cc2)ccn1 [Compound 7]
≥ 95%

Dear colleague, I am looking for the recorded inhibition at 5 µM of the following compound: CSc1nc(C(=O)Nc2ccc(Oc3ccnc(C(=O)NC4COC4)c3)c(F)c2)c(-c2ccc(F)c(F)c2)o1 [Compound 37]
< 50%

Dear colleague, I am looking for the recorded inhibition at 5 µM of the following compound: CSc1nc(C(=O)Nc2ccc(Oc3ccnc(C(=O)NC4CNC4)c3)c(F)c2)c(-c2ccc(F)cc2)o1 [Compound 29]
< 50%

Dear colleague, I am looking for the recorded inhibition at 5 µM of the following compound: CSc1nc(C(=O)Nc2ccc(Oc3ccnc(C(=O)NC4COC4)c3)c(F)c2)c(-c2ccc(F)s2)o1 [Compound 28]
< 50%

Dear colleague, I am looking for the recorded inhibition at 5 µM of the following compound: CSc1nc(C(=O)Nc2ccc(Oc3ccnc(C(=O)NCCN(C)C)c3)c(F)c2)c(-c2ccc(F)cc2)o1 [Compound 41]
50 to 79%

Dear colleague, I am looking for the recorded inhibition at 5 µM of the following compound: CNC(=O)c1cc(Oc2ccc(NC(=O)c3nc(OC)oc3-c3ccc(F)c(F)c3)cc2F)ccn1 [Compound 24]
50 to 79%

Dear colleague, I am looking for the recorded inhibition at 5 µM of the following compound: CSc1nc(C(=O)Nc2ccc(Oc3ccnc(C(=O)NC4CCN(C)CC4)c3)c(F)c2)c(-c2ccc(F)cc2)o1 [Compound 42]
< 50%

Dear colleague, I am looking for the recorded inhibition at 5 µM of the following compound: CSc1nc(C(=O)Nc2ccc(Oc3ccnc(N)c3Cl)c(F)c2)c(-c2ccc(F)cc2)o1 [Compound 1]
< 50%

Dear colleague, I am looking for the recorded inhibition at 5 µM of the following compound: CNC(=O)c1cc(Oc2ccc(NC(=O)c3nc(SC)oc3-c3ccc(F)s3)cc2F)ccn1 [Compound 16]
< 50%

Dear colleague, I am looking for the recorded inhibition at 5 µM of the following compound: CNC(=O)c1cc(Oc2ccc(NC(=O)c3nc(COC)oc3-c3ccc(F)cc3)cc2F)ccn1 [Compound 30]
80 to 89%

Dear colleague, I am looking for the recorded inhibition at 5 µM of the following compound: CNC(=O)c1cc(Oc2c(F)cc(NC(=O)c3nc(NC)sc3-c3ccc(F)cc3)cc2F)ccn1 [Compound 19]
50 to 79%

Dear colleague, I am looking for the recorded inhibition at 5 µM of the following compound: CNC(=O)c1cc(Oc2ccc(NC(=O)c3nc(OC4CC4)oc3-c3ccc(F)cc3)cc2F)ccn1 [Compound 32]
80 to 89%

Dear colleague, I am looking for the recorded inhibition at 5 µM of the following compound: CNC(=O)c1cc(Oc2ccc(NC(=O)c3nc(OC)oc3-c3ccc(F)cc3)cc2F)ccn1 [Compound 15]
50 to 79%

Dear colleague, I am looking for the recorded inhibition at 5 µM of the following compound: CNC(=O)c1cc(Oc2ccc(NC(=O)c3nc(SC(C)C)oc3-c3ccc(F)cc3)cc2F)ccn1 [Compound 34]
80 to 89%

Dear colleague, I am looking for the recorded inhibition at 5 µM of the following compound: [2H]C([2H])([2H])NC(=O)c1cc(Oc2ccc(NC(=O)c3nc(SC)oc3-c3ccc(F)c(F)c3)cc2F)ccn1 [Compound 33]
50 to 79%
